Values from the supplement of paper PMC10724198

# System: Saccharomyces cerevisiae
# Experimental details: protein stability index of tFT-peptide fusion (C-terminal peptide) (PSI (0-1 scale)); higher = more stable (slower turnover);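 further: PSI is a weighted mean of sequencing reads over stability bins, variants kept only with over 10 reads, mCherry proximal and sfGFP distal, peptide attached via GGGS linker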
# Reported conditions: genetic background: wild type; temperature: 30 C
Entries and their measured protein stability index follow.
Measured metric: protein stability index

Sequence chain: GGWRGWAGENTR
Measured metric: protein stability index
Test result: 0.699
--
Sequence chain: PVFTLLPTCYCA
Measured metric: protein stability index
Test result: 0.607
--
Sequence chain: PRFSFSGLPLPP
Measured metric: protein stability index
Test result: 0.681
--
Sequence chain: TFSGWYIQGQIV
Measured metric: protein stability index
Test result: 0.702
--
Sequence chain: PPFPLSPLPPPL
Measured metric: protein stability index
Test result: 0.71
--
Sequence chain: PRIIPRLARPQS
Measured metric: protein stability index
Test result: 0.69
--
Sequence chain: PSLPLSPLSDSR
Measured metric: protein stability index
Test result: 0.717
--
Sequence chain: KTGEKIKKNNIK
Measured metric: protein stability index
Test result: 0.692
--
Sequence chain: RQYARKKKKVRN
Measured metric: protein stability index
Test result: 0.683
--
Sequence chain: DKERRSKNRERR
Measured metric: protein stability index
Test result: 0.698
--
Sequence chain: VFRPFVLPLMFP
Measured metric: protein stability index
Test result: 0.611
--
Sequence chain: FFAFLLRSPSTS
Measured metric: protein stability index
Test result: 0.711
--
Sequence chain: RPPAPVFPNFPG
Measured metric: protein stability index
Test result: 0.708
--
Sequence chain: LGVGGRWGVPGA
Measured metric: protein stability index
Test result: 0.715

---

# Tested on: Saccharomyces cerevisiae
# Experimental details: protein stability index of tFT-peptide fusion (C-terminal peptide) (PSI (0-1 scale)); higher = more stable (slower turnover)
# Reported conditions: genetic background: cdc53-1; temperature: 37 C
Label rule met for high-side protein stability index (at or above 0.5) and rule not met for low-side protein stability index (below it).

Sequence chain: CFGIFWLFARLK
Target or system: Saccharomyces cerevisiae
Label class: rule not met
--
Sequence chain: VVIYWFLPIIFA
Target or system: Saccharomyces cerevisiae
Label class: rule not met
--
Sequence chain: YDLRRIGRIGVG
Target or system: Saccharomyces cerevisiae
Label class: rule not met
--
Sequence chain: GFISKLIIKLAA
Target or system: Saccharomyces cerevisiae
Label class: rule met
--
Sequence chain: FFFFSFFLATFS
Target or system: Saccharomyces cerevisiae
Label class: rule not met

---

# Tested on: Saccharomyces cerevisiae
# Experimental details: protein stability index of tFT-peptide fusion (C-terminal peptide) (PSI (0-1 scale)); higher = more stable (slower turnover)
# Reported conditions: genetic background: wild type; temperature: 30 C
Measured metric: protein stability index

Sequence chain: QVRCCQEYSSEE
Measured metric: protein stability index
Test result: 0.69

Sequence chain: PSPLTPAAPFPL
Measured metric: protein stability index
Test result: 0.674

Sequence chain: LVDSRIVWLFVS
Measured metric: protein stability index
Test result: 0.0955

Sequence chain: HNMSDARRPSNI
Measured metric: protein stability index
Test result: 0.702

Sequence chain: KVDRREGSRGGG
Measured metric: protein stability index
Test result: 0.682

Sequence chain: LTYVQPTKGTLG
Measured metric: protein stability index
Test result: 0.654

Sequence chain: PIHILTHTYIGR
Measured metric: protein stability index
Test result: 0.738

Sequence chain: ERFILVGMFGSW
Measured metric: protein stability index
Test result: 0.532

Sequence chain: LGLSCTIFPIGI
Measured metric: protein stability index
Test result: 0.679

Sequence chain: PSSFPDPFSPSL
Measured metric: protein stability index
Test result: 0.735

Sequence chain: VARCWGGLGLAR
Measured metric: protein stability index
Test result: 0.692

Sequence chain: GLLRVGGFWSCL
Measured metric: protein stability index
Test result: 0.747

Sequence chain: MFLPNPTLLTLN
Measured metric: protein stability index
Test result: 0.559

Sequence chain: IWVFSVTGWCGC
Measured metric: protein stability index
Test result: 0.452

Sequence chain: LPDPPLSPPPVR
Measured metric: protein stability index
Test result: 0.675

Sequence chain: FGVECDLCLFCC
Measured metric: protein stability index
Test result: 0.376

Sequence chain: FVVFLLFFMLYH
Measured metric: protein stability index
Test result: 0.379

Sequence chain: FYRTRQSASPNV
Measured metric: protein stability index
Test result: 0.688

Sequence chain: LTKTAHVGQLWL
Measured metric: protein stability index
Test result: 0.708

Sequence chain: PPRPPPLLPRTL
Measured metric: protein stability index
Test result: 0.707

Sequence chain: DNCIANLESGSL
Measured metric: protein stability index
Test result: 0.691

Sequence chain: TKVCWNVDYNVL
Measured metric: protein stability index
Test result: 0.697

Sequence chain: AEEAEVAGPRHC
Measured metric: protein stability index
Test result: 0.777

Sequence chain: AQAPSPGRAPSP
Measured metric: protein stability index
Test result: 0.716

Sequence chain: LAFGLGSFVWNC
Measured metric: protein stability index
Test result: 0.676

Sequence chain: WDGWPTRSGGTG
Measured metric: protein stability index
Test result: 0.738

Sequence chain: SSPSPPRPPAPF
Measured metric: protein stability index
Test result: 0.704

Sequence chain: HPPPTHAQGRLV
Measured metric: protein stability index
Test result: 0.671

Sequence chain: FYACRLWLVSVR
Measured metric: protein stability index
Test result: 0.29

Sequence chain: KRGSREQQRYWK
Measured metric: protein stability index
Test result: 0.659

Sequence chain: VGGGRGGVVRSG
Measured metric: protein stability index
Test result: 0.654

Sequence chain: GLLPTPPASLLY
Measured metric: protein stability index
Test result: 0.689

Sequence chain: ASVSVWCVSVVV
Measured metric: protein stability index
Test result: 0.15

Sequence chain: GASVSCQWFCGA
Measured metric: protein stability index
Test result: 0.694

Sequence chain: GGGGGASMSGTP
Measured metric: protein stability index
Test result: 0.687

Sequence chain: PALPHQPLPRPQ
Measured metric: protein stability index
Test result: 0.797

Sequence chain: RVSECVSVVGWM
Measured metric: protein stability index
Test result: 0.562

Sequence chain: KKKKKIKKKHNK
Measured metric: protein stability index
Test result: 0.686

Sequence chain: VRQKTPREQRVY
Measured metric: protein stability index
Test result: 0.701

Sequence chain: ACLGVSTPSLGI
Measured metric: protein stability index
Test result: 0.672

Sequence chain: RGVVRYVNGSRG
Measured metric: protein stability index
Test result: 0.568

Sequence chain: FCPPMPSVIALH
Measured metric: protein stability index
Test result: 0.649

Sequence chain: SSCRKFLFAIRR
Measured metric: protein stability index
Test result: 0.685

Sequence chain: LLLSLLVLRFFL
Measured metric: protein stability index
Test result: 0.423

Sequence chain: PSHQRVRGLPSL
Measured metric: protein stability index
Test result: 0.697

---

# Test system: Saccharomyces cerevisiae
# Experimental details: protein stability index of tFT-peptide fusion (C-terminal peptide) (PSI (0-1 scale)); higher = more stable (slower turnover)
# Reported conditions: genetic background: das1 deletion; temperature: 30 C

Sequence chain: YLLTAFLSAFNP
protein stability index: 0.543

Sequence chain: LPPYPPPVPILI
protein stability index: 0.362

Sequence chain: RCIRRWPYILKL
protein stability index: 0.615

Sequence chain: LDHGRVVWVVVS
protein stability index: 0.3

Sequence chain: VFGVWVVVGCVG
protein stability index: 0.149

Sequence chain: FFLLLLRPPLVM
protein stability index: 0.275

Sequence chain: YSALHNPPQPVT
protein stability index: 0.656

Sequence chain: HLYITGIIRKIT
protein stability index: 0.668

Sequence chain: FWMLCFLCRLTV
protein stability index: 0.306

Sequence chain: CILVSVDVIVFF
protein stability index: 0.118

Sequence chain: QDQWINTSLELS
protein stability index: 0.676

Sequence chain: GCVLVFFLRLDL
protein stability index: 0.354

Sequence chain: VWGLWRLCVWGV
protein stability index: 0.327

Sequence chain: GGRFVWIVRAVG
protein stability index: 0.611

Sequence chain: FSFCFCFPLSSL
protein stability index: 0.528

Sequence chain: VIQKKKKNKITS
protein stability index: 0.65

Sequence chain: GACRVSSCVVVC
protein stability index: 0.37

Sequence chain: GYVVYRRYILIR
protein stability index: 0.111

Sequence chain: VWLFSWSVVGGT
protein stability index: 0.369

Sequence chain: SSLLLLCCLLVG
protein stability index: 0.277

Sequence chain: FVVFYFFLLFGV
protein stability index: 0.298

Sequence chain: GAFAGDVWRCVV
protein stability index: 0.653

Sequence chain: RPRVAGLMTLVS
protein stability index: 0.543

Sequence chain: RMCPWVSVRVGV
protein stability index: 0.382

Sequence chain: YTLWFLAWGLVF
protein stability index: 0.241

Sequence chain: RGWWWFVVVLCR
protein stability index: 0.216

Sequence chain: RTKIKKKIMKNI
protein stability index: 0.667

Sequence chain: GVGAISLGFSWL
protein stability index: 0.658

Sequence chain: PPPPPPLPSSFP
protein stability index: 0.645

Sequence chain: LVDSRIVWLFVS
protein stability index: 0.439

Sequence chain: PPSPPPPPPSPF
protein stability index: 0.683

Sequence chain: SFLACFVLAFFC
protein stability index: 0.346

Sequence chain: INILVIWRKNHV
protein stability index: 0.521

Sequence chain: VCLVFLFQFVLI
protein stability index: 0.406

Sequence chain: SPGGALVFFVLV
protein stability index: 0.44

Sequence chain: AYPAHQLLVSCL
protein stability index: 0.405

Sequence chain: SYWNSSPKCGNW
protein stability index: 0.667

Sequence chain: RVSECVSVVGWM
protein stability index: 0.624

Sequence chain: LVVGCFLTFCFG
protein stability index: 0.26

Sequence chain: DVRLVLCEMIKG
protein stability index: 0.414

Sequence chain: RFIYYCVDVFFS
protein stability index: 0.123

Sequence chain: VFRECSFFLVCC
protein stability index: 0.281

Sequence chain: AVLSFVLVRSVV
protein stability index: 0.417

Sequence chain: LVVFLRFFLRVL
protein stability index: 0.166

Sequence chain: RHIRGLNLIKLI
protein stability index: 0.652

Sequence chain: FLVCTFCRWVWL
protein stability index: 0.448

Sequence chain: VVLGLFCVRMGT
protein stability index: 0.454

Sequence chain: FFGVLFRVSLFF
protein stability index: 0.191

Sequence chain: GFFFYFVLFGLS
protein stability index: 0.29

Sequence chain: VFYWGGVLCGWG
protein stability index: 0.309

Sequence chain: LCVFFRCFFVGG
protein stability index: 0.457

Sequence chain: YPSASLLPLFSC
protein stability index: 0.622

Sequence chain: VCMVLCRWRGLG
protein stability index: 0.606

Sequence chain: YRWERIYIGLRL
protein stability index: 0.49

Sequence chain: FFFFSFFLATFS
protein stability index: 0.288

Sequence chain: RAQQRVKERYIE
protein stability index: 0.669

Sequence chain: WFLVLLFFWFLL
protein stability index: 0.541

Sequence chain: SLPCCKVVFCVI
protein stability index: 0.417

Sequence chain: VRGAVGGWRLVG
protein stability index: 0.629

Sequence chain: GLAVLSWLYIEL
protein stability index: 0.457

Sequence chain: FFFCFFIFCFSL
protein stability index: 0.333

Sequence chain: DRYSFYGYVVVL
protein stability index: 0.512

Sequence chain: GLVSCWIDPSMA
protein stability index: 0.635

Sequence chain: PILRGRPTPAIL
protein stability index: 0.662

Sequence chain: IYITFQIYVSDM
protein stability index: 0.161

Sequence chain: VFTGYSAFLLLC
protein stability index: 0.487

Sequence chain: HMVSWTVVRSLM
protein stability index: 0.603
